- Tested on: HCT-116
- ASSAY_EXPLANATION: NCI tumour cell line growth inhibition, 48 h
Active and inactive are the calls of the source. Cut-off read from the data, not from the text of the source: active = GI50 up to about 1.1 µM and inactive = higher.
GI50 for assorted compounds

COc1ccc(CC(N)c2ccc(OC)cc2)cc1 (stereo unspecified)
92.9 µM (inactive)

Inquiry: Dear colleague, I am looking for the recorded GI50 of the following compound: O=P1(Oc2ccccc2)C(c2ccccc2)C(c2ccccc2)=NN1c1ccccc1 (stereo unspecified)
Reply text: 17.2 µM (inactive)

Inquiry: Dear colleague, I am looking for the recorded GI50 of the following compound: CCCCCC(=O)OC[n+]1ccc(-c2c(COC(=O)NC(C)C)c(COC(=O)NC(C)C)c3n2CCC3)cc1
Reply text: > 100 µM (inactive)

Inquiry: Dear colleague, I am looking for the recorded GI50 of the following compound: CC(=O)c1cccc(NC(=O)C(=O)Nn2c(N)nnc2N)c1
Reply text: > 100 µM (inactive)

Inquiry: Dear colleague, I am looking for the recorded GI50 of the following compound: CC[N+](CC)(CCNCC(N)=O)CC(N)=O
Reply text: > 10 µM (inactive)

Inquiry: Dear colleague, I am looking for the recorded GI50 of the following compound: N#CCCC(CC#N)N1CCN(C(CC#N)CCC#N)CC1 (stereo unspecified)
Reply text: > 100 µM (inactive)

----------
GI50 for assorted molecules
- Tested on: EKVX
- ASSAY_EXPLANATION: NCI tumour cell line growth inhibition, 48 h
Active and inactive are the calls of the source. Cut-off read from the data, not from the text of the source: active = GI50 up to about 1.1 µM and inactive = higher.

As a guide, the following entries are already answered.
C[C@H]1CC(=O)C2=CCCC3(SCCCS3)[C@@H]2[C@H]1CO
> 100 µM (inactive)
C/C(=N\N=C(\N)SB(F)F)c1ccc2ccccc2c1
> 100 µM (inactive)
O=C1/C(=C/C=C/c2ccccc2)N=C(c2ccccc2)N1C1Nc2cc3c(cc2S1)NC(N1C(=O)/C(=C/C=C/c2ccccc2)N=C1c1ccccc1)S3 (configuration not stated)
> 100 µM (inactive)
COC(=O)C1OC(O[C@H]2CC[C@]3(C)[C@H]4CC=C5[C@@H]6CC(C)(C)CC[C@]6(C(=O)OC)CC[C@@]5(C)[C@]4(C)CC[C@H]3C2(C)C)C(O)C(O)C1O (some centres not stated)
12.4 µM (inactive)
CCOC(=O)C1=CCOc2cc(N(C)C)ccc21
> 100 µM (inactive)

Inquiry: Dear colleague, I am looking for the recorded GI50 of the following molecule: C[C@]12CCC3c4ccc(O)cc4CC[C@H]3C1CC(=O)N(N)C2=O (some centres not stated)
Reply text: 64.7 µM (inactive)

Inquiry: Dear colleague, I am looking for the recorded GI50 of the following molecule: COc1ccc(CN(CCc2c[nH]c3ccccc23)Cc2ccc(OC)cc2)cc1
Reply text: 5.26 µM (inactive)

Inquiry: Dear colleague, I am looking for the recorded GI50 of the following molecule: N#CCc1nc2cc(C(F)(F)F)ccc2s1
Reply text: 10.7 µM (inactive)

Inquiry: Dear colleague, I am looking for the recorded GI50 of the following molecule: CCn1c(SC(C)C(=O)c2c(C)n(C)n(-c3ccccc3)c2=O)nc2ccccc2c1=O (configuration not stated)
Reply text: 36.4 µM (inactive)

----------
- Test system: PC-3
- ASSAY_EXPLANATION: NCI tumour cell line growth inhibition, 48 h
Active and inactive are the calls of the source. Cut-off read from the data, not from the text of the source: active = GI50 up to about 1.1 µM and inactive = higher.
ASSAY_ENDPOINT: GI50

Inquiry: Dear colleague, I am looking for the recorded GI50 of the following compound: COC(=O)c1cc2ccc(OC(C)=O)c(OC(C)=O)c2cn1
Reply text: 20.7 µM (inactive)

Inquiry: Dear colleague, I am looking for the recorded GI50 of the following compound: O=C1/C(=C/c2ccc3c(c2)OCO3)Sc2scc(-c3ccc(O)c(O)c3)[n+]21
Reply text: 4.38 µM (inactive)

Inquiry: Dear colleague, I am looking for the recorded GI50 of the following compound: O=C(O)c1cccc2cccc(-c3c4ccc(=O)cc-4oc4cc(O)ccc34)c12
Reply text: > 100 µM (inactive)

Inquiry: Dear colleague, I am looking for the recorded GI50 of the following compound: CC(C)(C)OC(=O)NC(Cc1ccccc1)OCc1ccccc1 (centres undefined)
Reply text: 13.5 µM (inactive)
